molecular target: monoclonal antibody AUII103-5-41a; assay: competitive EIA: unlabelled peptide displaces biotinylated goby urotensin II from captured antibody
PARAMETER MEASURED: IC50 (nM)

(P) ETPDCFWKYCV [human urotensin II]
(Q) GPTSECFWKYCV [porcine urotensin II-1]
Lower value of IC50 belongs to which: P or Q ? To answer, give the label that identifies your chosen option.
P
